# system name: Stat1tc, phosphorylated Tyr701 (Homo sapiens)
# experiment summary: EMSA
# assay conditions: dimer concentration at half saturation; strong site
endpoint label: pKd
# log scale: pKd equals minus log10 of the concentration in mol/L

Look up pKd for this sequence: GTTGTTCCGGGAAAAGG (double strand) [S1]
9.00

----------
# system name: Stat1tc, phosphorylated Tyr701 (Homo sapiens) (UniProt P42224)
# Sequence (P42224 whole entry): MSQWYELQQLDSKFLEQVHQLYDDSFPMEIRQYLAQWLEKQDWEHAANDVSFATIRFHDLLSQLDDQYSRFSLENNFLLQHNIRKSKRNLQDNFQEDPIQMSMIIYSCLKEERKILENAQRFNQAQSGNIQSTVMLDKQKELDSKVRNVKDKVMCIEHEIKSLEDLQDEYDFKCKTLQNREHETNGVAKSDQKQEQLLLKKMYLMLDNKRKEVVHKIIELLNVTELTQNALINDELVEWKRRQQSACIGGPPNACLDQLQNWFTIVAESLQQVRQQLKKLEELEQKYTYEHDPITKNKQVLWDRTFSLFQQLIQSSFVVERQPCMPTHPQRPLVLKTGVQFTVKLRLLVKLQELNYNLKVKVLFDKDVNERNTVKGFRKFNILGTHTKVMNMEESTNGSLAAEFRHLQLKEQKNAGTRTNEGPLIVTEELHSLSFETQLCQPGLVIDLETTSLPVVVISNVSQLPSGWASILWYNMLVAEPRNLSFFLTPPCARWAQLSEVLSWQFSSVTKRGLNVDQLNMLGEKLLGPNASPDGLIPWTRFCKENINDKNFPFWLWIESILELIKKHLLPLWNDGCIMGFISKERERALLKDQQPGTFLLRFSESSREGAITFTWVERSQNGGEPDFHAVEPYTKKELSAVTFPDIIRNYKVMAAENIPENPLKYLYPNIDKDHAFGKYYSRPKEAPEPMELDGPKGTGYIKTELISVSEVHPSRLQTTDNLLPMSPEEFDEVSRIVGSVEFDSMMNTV
# experiment summary: EMSA
# assay conditions: stated as same result for several oligonucleotides; complex half-life about 3 min (FIG. 5D)
endpoint label: pKd
# log scale: pKd equals minus log10 of the concentration in mol/L

Look up pKd for this sequence: GATTTCCCGTAAATCAT (double strand) [cfosM67]
9.00
